Numbers sourced from the supplement of paper PMC10567573.

B1: MMP1 (parent)
chain: YTPDLPRADVDHAIEKAFQLWSNV

Variants of: B1
Assay: protein stability index of a GFP-peptide fusion (GPS, HEK-293T) (PSI 1-6); higher = more stable;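 note: lentivirally expressed fusions sorted by FACS into six bins by GFP to DsRed ratio, PSI derived from sequencing read proportions per bin multiplied by bin number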
Details: c terminus: a fixed tail appended
Catalogue of protein stability index values
Please state the value as a number alone, without comment.

                     sequenceinput  testresult
0  YTPDLPRADVDHAIETAFQLWSNV [K16T]        2.03
1   YTPDLCRADVDHAIEKAFQLWSNV [P6C]        2.05
2  YTPDLPRADVDHAIEKAPQLWSNV [F18P]        1.99
3   YTPDLQRADVDHAIEKAFQLWSNV [P6Q]        2.03
4  YTPDLPRADVDEAIEKAFQLWSNV [H12E]        2.04

The variant identified as YTPDLPRADVDHQIEKAFQLWSNV [A13Q] registered its protein stability index at 2.03

The variant identified as YTPDLPRADVDHAIEKAFQLWSND [V24D] registered its protein stability index at 2.02
